Target under test: G12V-mutant human KRAS (amino acid residues 1-188) (Homo sapiens, UniProt P01116, G12V)
Construct: G12V-mutant human KRAS (amino acid residues 1-188) with FLAG tag was purified from E. coli; made in house; host or cells: E. coli
Experiment summary: KRAS Binding Competition Assay (AlphaScreen; biotinylated KRpep-2d analogue), G12V
Particulars: geometric mean, read-out: KRAS GMean IC50 (uM) MUTATION: G12V
Measure name: IC50

Molecule: CC1(NC(=O)N2[C@@H]3CC[C@H]2CN(c2nc(OCC45CCCN4CCC5)nc4cc(-c5cc(O)cc6ccccc56)ccc24)C3)CCNC1 (stereo partly drawn)
Reported: 0.0001 to 10 µM
--
Molecule: O=C(NC1CCCC1)N1[C@@H]2CC[C@H]1CN(c1nc(OCC34CCCN3CCC4)nc3cc(-c4cc(O)cc5ccccc45)ccc13)C2
Reported: 0.0001 to 10 µM
--
Molecule: O=C1NC(=O)C(CCC(=O)N2[C@@H]3CC[C@H]2CN(c2nc(OCC45CCCN4CCC5)nc4c(F)c(-c5cc(O)cc6ccccc56)ccc24)C3)N1 (stereo partly drawn)
Reported: 0.0001 to 10 µM

###

IC50 for assorted compounds
Target under test: G12V-mutant human KRAS (amino acid residues 1-188) (Homo sapiens, UniProt P01116, G12V)
Construct: G12V-mutant human KRAS (amino acid residues 1-188) with FLAG tag was purified from E. coli; made in house; host or cells: E. coli
Experiment summary: KRAS Binding Competition Assay (AlphaScreen; biotinylated KRpep-2d analogue), G12V
Particulars: geometric mean, read-out: KRAS GMean IC50 (uM) MUTATION: G12V

Compound: C[C@H](O)C(=O)N1[C@@H]2CC[C@H]1CN(c1nc(OC[C@@H]3CCCN3C)nc3c(F)c(-c4cc(O)cc5ccccc45)ccc13)C2 [P-0394]
IC50: 0.0001 to 10 µM
--
Compound: CN1CCN(CCCC(=O)N2[C@@H]3CC[C@H]2CN(c2nc(OC[C@@H]4CCCN4C)nc4cc(-c5cc(O)cc6ccccc56)ccc24)C3)CC1 [P-0119]
IC50: 10 to 100 µM
--
Compound: CN1CCC[C@H]1COc1nc(N2C[C@H]3CC[C@@H](C2)N3)c2cc(Cl)c(-c3c[nH]c4ccc(Cl)cc34)c(F)c2n1 [P-0323]
IC50: 10 to 100 µM
--
Compound: O=C(N[C@H]1CCCNC1)N1[C@@H]2CC[C@H]1CN(c1nc(OCC34CCCN3CCC4)nc3cc(-c4cc(O)cc5ccccc45)ccc13)C2 [P-0142]
IC50: 0.0001 to 10 µM
--
Compound: CN1CCC[C@H]1COc1nc(N2[C@@H]3CC[C@H]2CN(C(=O)[C@@H](N)CO)C3)c2ccc(-c3cc(O)cc4ccccc34)cc2n1 [P-0223]
IC50: 10 to 100 µM
--
Compound: CN1CCC[C@H]1COc1nc(N2[C@@H]3CC[C@H]2CNC3)c2ccc(-c3cccc(C(N)=O)n3)cc2n1 [P-0148]
IC50: 10 to 100 µM

###

Target under test: G12V-mutant human KRAS (amino acid residues 1-188) (Homo sapiens, UniProt P01116, G12V)
Construct: G12V-mutant human KRAS (amino acid residues 1-188) with FLAG tag was purified from E. coli; made in house; host or cells: E. coli
Experiment summary: KRAS Binding Competition Assay (AlphaScreen; biotinylated KRpep-2d analogue), G12V
Particulars: geometric mean, read-out: KRAS GMean IC50 (uM) MUTATION: G12V
Measure name: IC50

Compound: CN1CCC[C@H]1COc1nc(N2C[C@H]3CC[C@@H](C2)N3C(=O)CN2CCCC2)c2ccc(-c3cc(O)cc4ccccc34)cc2n1 [P-0118]
Target under test: G12V-mutant human KRAS (amino acid residues 1-188) (Homo sapiens, UniProt P01116, G12V)
Reported: 10 to 100 µM

Compound: O=C(O)CC(=O)N1[C@@H]2CC[C@H]1CN(c1nc(OCC34CCCN3CCC4)nc3c(F)c(-c4cc(O)cc5ccccc45)ccc13)C2 [P-0353]
Target under test: G12V-mutant human KRAS (amino acid residues 1-188) (Homo sapiens, UniProt P01116, G12V)
Reported: 0.0001 to 10 µM

Compound: O=C1NC(=O)[C@H](CC(=O)N2[C@@H]3CC[C@H]2CN(c2nc(OCC45CCCN4CCC5)nc4c(F)c(-c5cc(O)cc6ccccc56)ccc24)C3)N1 [P-0415]
Target under test: G12V-mutant human KRAS (amino acid residues 1-188) (Homo sapiens, UniProt P01116, G12V)
Reported: 0.0001 to 10 µM

Compound: CN1CCCC(Oc2nc(N3[C@@H]4CC[C@H]3CNC4)c3ccc(-c4cc(O)cc5ccccc45)cc3n2)C1 (stereo partly drawn) [P-0239]
Target under test: G12V-mutant human KRAS (amino acid residues 1-188) (Homo sapiens, UniProt P01116, G12V)
Reported: 0.0001 to 10 µM

Compound: CN1CCC[C@H]1COc1nc(N2C[C@H]3CC[C@@H](C2)N3)c2cc(F)c(-c3c[nH]c4cccc(Cl)c34)c(F)c2n1 [P-0309]
Target under test: G12V-mutant human KRAS (amino acid residues 1-188) (Homo sapiens, UniProt P01116, G12V)
Reported: 10 to 100 µM

Compound: C[C@@H](O)C(=O)N1C[C@H]2CC[C@@H](C1)N2c1nc(OC[C@@H]2CCCN2C)nc2cc(-c3cc(O)cc4ccccc34)ccc12 [P-0220]
Target under test: G12V-mutant human KRAS (amino acid residues 1-188) (Homo sapiens, UniProt P01116, G12V)
Reported: 100 to 1000 µM
